Attribution: patent US20180117103A1

- Measurement Description: Vitamin C levels in sera of white rats by HPLC
- Assay type: in vivo
- Condition Info: male, SD, rat, 1000 mg/head, serum of white rats, oral administration for 5 weeks, read-out: Vit C (serum vitamin C level), Mean ± SD
Reported Property: concentration at 5 weeks (µM)
The answer is to be given in µM; state only the numeric part.

Look at this compound and give its reported concentration at 5 weeks. O=C1O[C@H]([C@@H](O)CO)C(O)=C1O
32.5
